system: RXF 393 renal; assay: NCI-60 one-dose screen, 48 h (100 = growth as untreated, 0 = no growth, -100 = all killed); conditions: 10 µM unless noted
Compounds without any hit were thinned out: in the full panel of roughly 83,000, 20% have a hit.
With a cut-off of 30%, any growth strictly below it is called y; any growth meeting it or above is called n.

[[record]]
molecule = "CC(C)(C)OC(=O)NC(CSCc1ccccc1)C(=O)ON1C(=O)CCC1=O (centres undefined)"
category = "n"

[[record]]
molecule = "O=[N+]([O-])c1ccc(Sc2ncccn2)c([N+](=O)[O-])c1"
category = "y"

[[record]]
molecule = "O=C(CCl)N(C1CCCCC1)C1CCCCC1"
category = "n"

[[record]]
molecule = "COc1cccc(-c2nc3sccn3c2-c2ccnc(NCCCNS(=O)(=O)c3ccc(C(F)(F)F)cc3)c2)c1"
category = "n"

[[record]]
molecule = "COc1cccc(/C=C2\\Oc3cc(OCCCN4CCCC4)ccc3C2=O)c1"
category = "n"

[[record]]
molecule = "C=C1C(=O)O[C@H]2[C@H]1CC/C(Cn1cc(-c3cccc(Cl)c3)nn1)=C\\CC[C@@]1(C)O[C@@H]21"
category = "y"

[[record]]
molecule = "CCOC(=O)C1=C(C)NC(C)=C(C(=O)OCC)C1(C)C"
category = "n"

[[record]]
molecule = "COc1cc(-c2nn(-c3cccc(NC(=O)c4ccc(Cl)c(C(F)(F)F)c4)c3)cc2-c2ccncc2)ccc1Cl"
category = "y"

[[record]]
molecule = "c1ccc(-c2cn(-c3ccccc3)c(-c3ccccc3)n2)cc1"
category = "n"

[[record]]
molecule = "COc1ccc(-c2ccc(C)n2-c2ccc(-c3nc4cc(Cl)ccc4s3)cc2)cc1"
category = "n"


Problem: # strict comparison: is reported growth < 30%? input = C=C1CCC2C(C)(CO)C(O)CCC2(C)C1C/C=C1/C(=O)OCC1O/C=C/c1ccccc1 (centres undefined)
Solution: n

Problem: # strict comparison: is reported growth < 30%? input = `COc1cccc(/C=C2\Oc3cc(OCCCN4CCCC4)ccc3C2=O)c1OC`
Solution: n

Problem: # strict comparison: is reported growth < 30%? input = `CCCCCCN1CSC(=S)N(CCCCCC)C1`
Solution: n

Problem: # strict comparison: is reported growth < 30%? input = `COc1cc(-c2nn(-c3cccc(NC(=O)c4ccccc4)c3)cc2-c2ccncc2)ccc1Cl`
Solution: y

Problem: # strict comparison: is reported growth < 30%? input = `COc1cc(/C=C/C(=O)c2c(C)nc3ccccc3c2C)ccc1OCCCCOc1cc2c(cc1OC)C(=O)N1CCC[C@H]1C=N2`
Solution: y

Problem: # strict comparison: is reported growth < 30%? input = `COc1cc(-c2nn(-c3cccc(NC(=O)c4cccc(C(F)(F)F)c4)c3)cc2-c2ccncc2)ccc1Cl`
Solution: y

Problem: # strict comparison: is reported growth < 30%? input = `CCCCCCCC[C@@H](O)CC(=O)N[C@@H](CC(N)=O)C(=O)N[C@@H](CCC(N)=O)C(=O)N[C@@H](CC(=O)c1cc(C)cc(O)c1C(=O)c1c(O)cccc1O)CC(C)C`
Solution: y

Problem: # strict comparison: is reported growth < 30%? input = `C=C(C)[C@@H]1C[C@@H]2Cc3cc(Cl)ccc3N1O2`
Solution: n

Problem: # strict comparison: is reported growth < 30%? input = `FC(F)(F)c1ccccc1-c1cn2c(ccc3ccccc32)n1`
Solution: n

Problem: # strict comparison: is reported growth < 30%? input = `COC(=O)c1cccc2c1N(C)c1c(cccc1C(=O)OC)CC2`
Solution: n

Problem: # strict comparison: is reported growth < 30%? input = `Cc1ccc(C(=O)C2=Cc3cc4ccccc4n3Cc3cnnn32)cc1`
Solution: n

Problem: # strict comparison: is reported growth < 30%? input = `O=C(NNC(=S)Nc1ccccc1)c1cc2ccc1CCc1ccc(cc1)CC2`
Solution: n

Problem: # strict comparison: is reported growth < 30%? input = `Clc1ccccc1-c1nc2ccccc2[nH]1`
Solution: n

Problem: # strict comparison: is reported growth < 30%? input = `N=C(N)c1ccc(-c2ccc(-c3ccc(-c4cccs4)s3)s2)cc1`
Solution: n

Problem: # strict comparison: is reported growth < 30%? input = `CO[C@H]1NC(=O)N(S(=O)(=O)c2ccc(Cl)cc2)[C@@H]1OC`
Solution: n

Problem: # strict comparison: is reported growth < 30%? input = `S=c1[nH]nc(-c2cc3ccc2CCc2ccc(cc2)CC3)n1C1CC1`
Solution: n

Problem: # strict comparison: is reported growth < 30%? input = `CN(C[C@H]1Cc2c(cccc2N2CCN(c3ncccn3)CC2)CN1)[C@H]1CCCc2cccnc21`
Solution: n

Problem: # strict comparison: is reported growth < 30%? input = `O=C(Nc1ccncc1)C(=O)c1cn(S(=O)(=O)c2ccc(Cl)cc2)c2ccccc12`
Solution: y

Problem: # strict comparison: is reported growth < 30%? input = COc1ccc2c(c1)NC1=C(C(=O)OC1)C2c1cc(OC)c2c(c1)OCO2 (centres undefined)
Solution: y

----------
Tested on: K-562 leukemia
Assay: NCI-60 one-dose screen, 48 h
Details: 10 µM unless noted
Method: Cells are grown in 96 well plates and exposed to the test compound for 48 hours. Compounds are tested at a single concentration, which is 10^-5 M for most compounds. The reported endpoint is percent growth (GI% or GIPRCNT), where numbers from 0 - 100% represent growth inhibition, and numbers from -100% - 0 represent cell death. For example, a value of 40 represents 60% growth inhibition. A value of 0 means no net growth occurred over the course of the experiment. […]
The panel holds about 83,000 compounds, 20% with a hit somewhere; the sample as a whole holds those more often. Calls of active or inactive are those of the source. Rule for the calls: active = growth percent below 10; inactive = the rest.
The categories you may choose from are active, inactive

[[record]]
compound = "CC(C)OC(=O)N1CCOCC1"
category = "inactive"


Now take the following compound into account.
Problem: // param item: `N=C(N)c1ccc(-c2cc(Cl)cc(Cl)c2)cn1` ; yields the recorded call
Solution: inactive

----------
system: MDA-MB-435 melanoma; assay: NCI-60 one-dose screen, 48 h (100 = growth as untreated, 0 = no growth, -100 = all killed); conditions: 10 µM unless noted
About 83,000 compounds went through this panel and 20% of them were active in at least one assay; those are over-represented in the sample as a whole.
The entries below come with measured growth values attached.
Give just the numeric value; % need not be written.

// below: answered molecules
[[record]]
molecule = "O=C1/C(=C/c2ccc(Cl)cc2)CN(Cc2cn(CCNc3ccnc4cc(Cl)ccc34)nn2)C/C1=C\\c1ccc(Cl)cc1"
val = -98.6

[[record]]
molecule = "O=C(NNC(=S)Nc1ccccc1)c1cc2ccc1CCc1ccc(cc1)CC2"
val = 70.3

[[record]]
molecule = "N#Cc1ccc(N2Cc3ccccc3OC3=C2C(=O)c2c(O)ccc(O)c2C3=O)cc1"
val = -43.9

[[record]]
molecule = "CC(C)c1ccc2occ(C=C3C(=O)NC(=O)NC3=O)c(=O)c2c1"
val = 105

[[record]]
molecule = "CCCCCCN1CSC(=S)N(CCCCCC)C1"
val = 97.6

[[record]]
molecule = "CCCCCCCCCCCCNC(=O)[C@H]1CSC(c2cc(Br)cs2)N1 (stereo partly specified)"
val = -90.3

[[record]]
molecule = "N#Cc1c(Nc2ccccc2)nc2n(c1=O)-c1ccccc1Sc1ccccc1-2"
val = 82.8

[[record]]
molecule = "O=c1cc(Cc2ccc([N+](=O)[O-])cc2)[nH]c(=O)[nH]1"
val = 107

[[record]]
molecule = "COc1ccc(C(=O)c2cc(OC)c3c(c2)OCO3)cc1O"
val = -22.5

[[record]]
molecule = "COc1ccc2c(c1)C(c1cc(OC)c3c(c1)OCO3)C1=C(COC1=O)N2 (stereo unspecified)"
val = -13.5


Problem: State its growth: `COc1cc(/C=C/C(=O)c2c(C)nc3ccccc3c2C)ccc1OCCCCOc1cc2c(cc1OC)C(=O)N1CCC[C@H]1C=N2`
Solution: -34.8

Problem: State its growth: `CCCOC(=O)n1cccc1`
Solution: 110

Problem: State its growth: `OCc1ncc(-c2ccccc2)s1`
Solution: 108

Problem: State its growth: `CC(C)(C)OC(=O)NCCc1ccc(N=C=S)cc1`
Solution: 71.3

Problem: State its growth: `Cc1ccc(S(=O)(=O)n2cc(C(=O)C(=O)N3CCOCC3)c3ccccc32)cc1`
Solution: 104

----------
Test system: CCRF-CEM leukemia
Assay: NCI-60 one-dose screen, 48 h (100 = growth as untreated, 0 = no growth, -100 = all killed)
Details: 10 µM unless noted
Experimental: Growth inhibition of the CCRF-CEM human tumor cell line is measured as a screen for anti-cancer activity. Cells are grown in 96 well plates and exposed to the test compound for 48 hours. Compounds are tested at a single concentration, which is 10^-5 M for most compounds. The reported endpoint is percent growth (GI% or GIPRCNT), where numbers from 0 - 100% represent growth inhibition, and numbers from -100% - 0 represent cell death. For example, a value of 40 represents 60% growth inhibition. […]
Compounds without any hit were thinned out: in the full panel of roughly 83,000, 20% have a hit.
Recorded metric: growth (%)
Give just the numeric value; % need not be written.

// below: answered compounds
[[record]]
compound = "Nc1nnc(-c2ccc3ccccc3c2O)o1"
val = 88.7

[[record]]
compound = "Fc1ccc(-c2nc(-c3nc4ncccc4[nH]3)cc3c2[nH]c2ccccc23)cc1F"
val = 67.2

[[record]]
compound = "FC(F)(F)c1cccc(-c2cn3c(ccc4ccccc43)n2)c1"
val = 105

[[record]]
compound = "O=[N+]([O-])c1ccc(C(c2ccccc2)c2ccccc2)cc1"
val = 97.8

[[record]]
compound = "Cn1cnc2c(N3CCN(C(=O)OCc4ccc5c(Cl)cc(Cl)c(O)c5n4)CC3)nc(Cl)nc21"
val = 37.6


Problem: State its growth: `CCc1cnc(=S)n(-c2ccccc2)c1`
Solution: 129

Problem: State its growth: `COc1ccc(Nc2nn3c(C)cc(C)nc3c2C(=O)Nc2ccc(C)cc2)c(OC)c1`
Solution: 106

Problem: State its growth: `Cc1ccc(S(=O)(=O)NCCNc2nccc(-c3c(-c4ccc(O)cc4)nc4sccn34)n2)cc1`
Solution: 86.8
